Target: human CD40 on cells (human, UniProt P25942 21-277)
Sequence (P25942 21-277 limits assumed): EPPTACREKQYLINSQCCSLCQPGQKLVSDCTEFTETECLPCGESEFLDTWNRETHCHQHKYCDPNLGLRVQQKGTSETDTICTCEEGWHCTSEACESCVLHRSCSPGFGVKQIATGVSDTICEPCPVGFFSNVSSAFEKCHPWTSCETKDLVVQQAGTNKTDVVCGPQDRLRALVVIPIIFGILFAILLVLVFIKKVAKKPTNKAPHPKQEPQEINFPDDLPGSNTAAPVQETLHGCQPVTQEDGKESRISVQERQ
Assay: cell-based or functional assay
Listed binders paired with reported human B cell proliferation, no crosslinking, EC50

binder	result
39C2 (antibody, IgG4, V domains shown, also called 4887-1) VH: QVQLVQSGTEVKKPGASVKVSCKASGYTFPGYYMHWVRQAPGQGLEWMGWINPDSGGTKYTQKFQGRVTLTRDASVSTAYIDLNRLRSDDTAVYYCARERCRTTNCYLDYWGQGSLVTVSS VL: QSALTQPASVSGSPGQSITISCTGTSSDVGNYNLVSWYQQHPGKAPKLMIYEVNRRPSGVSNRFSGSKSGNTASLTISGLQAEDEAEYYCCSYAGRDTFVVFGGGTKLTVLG	> 16.7 nM

Query binder follows.
Q: If you can, please state the reported human B cell proliferation, no crosslinking, EC50 value of 30A12 (antibody, IgG4, V domains shown, also called 4878-1) VH: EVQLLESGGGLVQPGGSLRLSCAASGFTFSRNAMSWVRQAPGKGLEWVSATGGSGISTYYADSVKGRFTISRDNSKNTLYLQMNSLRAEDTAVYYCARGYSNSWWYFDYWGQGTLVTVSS VL: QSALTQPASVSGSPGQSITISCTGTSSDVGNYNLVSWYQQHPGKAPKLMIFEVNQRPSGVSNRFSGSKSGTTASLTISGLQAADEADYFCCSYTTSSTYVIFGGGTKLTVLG .
Ans: > 16.7 nM
